# measuredTarget: T1, CRBN, Q96SW2;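 also: pooled lentiviral library of zinc finger degron-EGFP fusions in mCherry-positive Jurkat cells, FACS-sorted after compound exposure, with degron abundance counted by next-generation sequencing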
# T1 chain: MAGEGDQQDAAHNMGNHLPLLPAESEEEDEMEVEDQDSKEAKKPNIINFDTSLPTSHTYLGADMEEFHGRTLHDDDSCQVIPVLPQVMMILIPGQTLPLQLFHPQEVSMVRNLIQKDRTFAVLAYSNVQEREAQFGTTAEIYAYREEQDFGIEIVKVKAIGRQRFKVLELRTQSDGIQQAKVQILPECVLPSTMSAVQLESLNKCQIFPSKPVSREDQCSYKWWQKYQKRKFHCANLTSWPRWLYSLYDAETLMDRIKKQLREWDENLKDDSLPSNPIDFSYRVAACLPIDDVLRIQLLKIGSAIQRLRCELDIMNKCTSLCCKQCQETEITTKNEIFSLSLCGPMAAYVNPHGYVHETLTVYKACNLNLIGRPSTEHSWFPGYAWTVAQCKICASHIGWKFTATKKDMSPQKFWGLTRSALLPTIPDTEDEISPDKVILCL
# assayDetails: log2 fold change of degron read counts, EGFP-low vs EGFP+ sorted cells (limma voom), compound-induced degradation; higher = more compound-induced degradation of the degron-EGFP fusion; degrons are variants of IKZF1/3 zinc finger 2; compound dose not given here
# settings: Jurkat; 18 h; compound: compound 19 (5-tert-butyl-thalidomide)
In all, about 8,300 sequences were measured (“log2 fold change of degron read counts, EGFP-low vs EGFP+ sorted cells (limma voom), compound-induced degradation”: median about -1.1, highest 2% from about 3.2 on). Only a selection was taken, and the highest values are over-represented in it overall.
measurementLabel: log2 fold change of degron read counts
Respond using a number only.

Worked cases, answers included:
INSERT INTO measurements (chainsequence, measurementlabel, reportedmeasurement) VALUES
  ('FACNQCGHQFTQKGNLLRHIKL [46F_47A_49N_50Q_52G_53H_54Q_55F_67L_, Q9UKT9]', 'log2 fold change of degron read counts', -2.48),
  ('FKCDICGAKFTQKGNLLRHIKL [46F_47K_49D_50I_52G_53A_54K_55F_67L_, Q9UKT9]', 'log2 fold change of degron read counts', -2.45);

Name the recorded log2 fold change of degron read counts of the item FRCSVCGHNFTQKGNLLRHIKL [46F_47R_49S_50V_52G_53H_54N_55F_67L_, Q9UKT9] in your answer. -2.2

Name the recorded log2 fold change of degron read counts of the item FQCDICGAKFTQKGNLLRHIKL [46F_47Q_49D_50I_52G_53A_54K_55F_67L_, Q9UKT9] in your answer. -0.69

Name the recorded log2 fold change of degron read counts of the item FTCPICGHHFTQKGNLLRHIKL [46F_47T_49P_50I_52G_53H_54H_55F_67L_, Q9UKT9] in your answer. -2.5
